Assay: Rat pharmacokinetic study
Format: in vivo, Sprague-Dawley rats
Details: Sprague-Dawley, plasma, 2 mg/kg; Rat po @2 mpk; 0.2 mg/mL in 5% DMSO + 15% Solutol HS 15 + 80% Saline; read-out: t½ (converted)
quantity: half-life (min)

[[record]]
structuresmilesstring = "CCCS(=O)(=O)NC12CC(n3cnc4cnc5[nH]ccc5c43)(C1)C2"
measurement = 124


* * *

Experiment: Rat pharmacokinetic study
Format: in vivo, Sprague-Dawley rats
Conditions: Sprague-Dawley, plasma, 1 mg/kg; Rat iv @1 mpk; 0.2 mg/mL in 5% DMSO + 15% Solutol HS 15 + 80% Saline
quantity: AUC (ng·h/mL)

[[record]]
structuresmilesstring = "CCCS(=O)(=O)NC12CC(n3cnc4cnc5[nH]ccc5c43)(C1)C2"
quantity = "AUC"
measurement = 458


* * *

System: BaF3-TEL-JAK1
Assay: Anti-proliferative assay, BaF3-TEL-JAK1 cells
Assay type: cell-based
Settings: 72 h, Cell-Titer Glo
Class definitions on GI50: low (below 30 nM), intermediate (30 nM to below 50 nM), high (50 nM or more)

[[record]]
molecule = "O=C(NC12CC(n3cnc4cnc5[nH]ccc5c43)(C1)C2)C1CC(F)(F)C1 [Example 17]"
qualitativelabel = "intermediate"

[[record]]
molecule = "CCCS(=O)(=O)NC12CC(n3cnc4cnc5[nH]ccc5c43)(C1)C2 [Example 1]"
qualitativelabel = "low"

[[record]]
molecule = "O=S(=O)(CCC(F)(F)F)NC12CC(n3cnc4cnc5[nH]ccc5c43)(C1)C2 [Example 32]"
qualitativelabel = "intermediate"

[[record]]
molecule = "O=S(=O)(NC12CC(n3cnc4cnc5[nH]ccc5c43)(C1)C2)N1CC(F)C1 [Example 22]"
qualitativelabel = "high"

[[record]]
molecule = "O=C(CCC(F)(F)F)NC12CC(n3cnc4cnc5[nH]ccc5c43)(C1)C2 [Example 18]"
qualitativelabel = "high"

[[record]]
molecule = "O=S(=O)(NC12CC(n3cnc4cnc5[nH]ccc5c43)(C1)C2)N1CC(F)(F)C1 [Example 23]"
qualitativelabel = "intermediate"

[[record]]
molecule = "O=S(=O)(CC1CC(F)(F)C1)NC12CC(n3cnc4cnc5[nH]ccc5c43)(C1)C2 [Example 46]"
qualitativelabel = "low"

[[record]]
molecule = "CCCCS(=O)(=O)NC12CC(n3cnc4cnc5[nH]ccc5c43)(C1)C2 [Example 31]"
qualitativelabel = "low"

[[record]]
molecule = "CCCS(=O)(=O)N[C@H]1C[C@@H](n2cnc3cnc4[nH]ccc4c32)C1 [Example 2]"
qualitativelabel = "high"

[[record]]
molecule = "CCCS(=O)(=O)N[C@H]1C[C@H](n2cnc3cnc4[nH]ccc4c32)C1 [Example 3]"
qualitativelabel = "high"

[[record]]
molecule = "CC(C)CS(=O)(=O)NC12CC(n3cnc4cnc5[nH]ccc5c43)(C1)C2 [Example 5]"
qualitativelabel = "low"

[[record]]
molecule = "O=C(NCC(F)(F)F)NC12CC(n3cnc4cnc5[nH]ccc5c43)(C1)C2 [Example 41]"
qualitativelabel = "high"


* * *

Assay: Rat pharmacokinetic study
Type: in vivo, Sprague-Dawley rats
Details: Sprague-Dawley, plasma, 1 mg/kg; Rat iv @1 mpk; 0.2 mg/mL in 4% DMSO + 15% Solutol HS 15 + 81% Saline
quantity: Vd (L/kg)

[[record]]
molecule = "N#CC1CN(S(=O)(=O)NC23CC(n4cnc5cnc6[nH]ccc6c54)(C2)C3)C1 [Example 4]"
quantity = "Vd"
measurement = 0.93

